Values compiled from patent US20120184590A1.

# PROTOCOL: Pharmacokinetics of SR13668 in monkeys after i.v. and oral gavage dosing
# Format: in vivo, cynomolgus monkeys (macaca fasicularis)
# CONDITION PARAMETERS: male, cynomolgus monkey, whole blood, po, 7.02 mg/kg, 84.2 mg/m^2 (7.02 mg/kg) oral gavage, Solutol, seventh daily dose, fed
EXPERIMENTAL ENDPOINT: Cmax (ng/mL)
Numbers only, in ng/mL.

[ask] Supply reported Cmax belonging to this compound: CCOC(=O)c1ccc2[nH]c3c(OC)c4[nH]c5ccc(C(=O)OCC)cc5c4cc3c2c1
[reply] 227

---

# PROTOCOL: Pharmacokinetics of SR13668 in monkeys after i.v. and oral gavage dosing
# Format: in vivo, cynomolgus monkeys (macaca fasicularis)
# CONDITION PARAMETERS: male, cynomolgus monkey, plasma, po, 7.02 mg/kg, plasma, 84.2 mg/m^2 (7.02 mg/kg) oral gavage, PEG400:Labrasol 1:1 v/v, seventh daily dose, fed
# Description: Four non-naïve male beagle dogs (approximately 3 years of age; Ridglan Farms Inc. Mt. Horeb, Wis.) and four non-naïve male cynomolgus monkeys [cynos (macaca fasicularis); approximately 7 to 8 years of age; Charles River Laboratories, Inc., Houston, Tex.] were used in this study. […] A freshly prepared SR13668 standard curve was analyzed along with samples on each day of analysis. […]
EXPERIMENTAL ENDPOINT: AUC(0-inf) (ng·h/mL)
Answers are plain numbers, in ng·h/mL.

[ask] // fetch AUC(0-inf) given entry CCOC(=O)c1ccc2[nH]c3c(OC)c4[nH]c5ccc(C(=O)OCC)cc5c4cc3c2c1 [SR13668]
[reply] 437
